- experimental.protocol: qHTS for Inhibitors of Plasmodium falciparum (CP250) proliferation (AID 504320)
- setup.conditions: P. falciparum CP250 in erythrocytes, SYBR Green DNA, 72 h; series mostly up to 6.7 µM
Inconclusive results are not listed. Activity calls are given as the source filed them. Calls come from the whole dose curve; as a rule, active = well fitted inhibition curve with a large enough effect; inconclusive = small, poorly fitted or top-dose-only effect, or effect the other way; inactive = flat fitted curve, though single readings scatter.
The categories you may choose from are active, inactive

Record lookup: outcome of this test for C=C1CN2C(=NC(c3ccccc3)C(C(=O)OC)=C2C)O1 (configuration not stated) ?
inactive

Record lookup: outcome of this test for `COC(=O)[C@@H]1C=C[C@H](C)[C@H](CCOc2ccccc2)O1` ?
inactive

Record lookup: outcome of this test for `CC(=O)OC[C@H]1O[C@@H](ON=C2C[C@@H](O)[C@@H](O)[C@@H]3[C@H]4C(=O)N(Cc5ccccc5)C(=O)[C@@H]4CC[C@@H]23)[C@H](OC(C)=O)[C@@H](OC(C)=O)[C@H]1OC(C)=O` ?
inactive

Record lookup: outcome of this test for O=C(N[C@H](c1ccccc1)C1CCCC=C1c1ccccc1)C(F)(F)F (some centres not stated) ?
inactive

Record lookup: outcome of this test for CCOC(=O)CN1C(=O)NC(c2cccc(F)c2)C(C(C)=O)=C1C (configuration not stated) ?
inactive

Record lookup: outcome of this test for CCN1C(=S)NC(c2ccccc2)C(C(=O)OC)=C1C (configuration not stated) ?
inactive

Record lookup: outcome of this test for CCN1C(=O)N(C)C(c2ccccc2)C(C(=O)OC)=C1C (configuration not stated) ?
inactive

Record lookup: outcome of this test for `COC[C@@H](O)[C@H]1OCc2cccc(OC)c2[C@H]1C=Cc1ccccc1` ?
inactive

Record lookup: outcome of this test for `C[C@@H]1CC[C@H]2C(=O)N(Cc3cccc([N+](=O)[O-])c3)C[C@H](O)CN2[C@@H]1c1cccc(Br)c1` ?
inactive

Record lookup: outcome of this test for COC(=O)CCCC1=CC2=CC(=O)C(C)(OC(=O)c3cccs3)C(=O)C2=CN1C1CC1 (configuration not stated) ?
inactive

Record lookup: outcome of this test for `CC(C)(C)c1ccc(O[C@@H]2[C@H](O)CO[C@@H]2C=CC#Cc2ccccc2)cc1` ?
inactive

Record lookup: outcome of this test for `COC(=O)N1[C@H]2CC[C@@]3(C)CC(=O)C[C@]1(C)C3c1ccccc12` ?
inactive

Record lookup: outcome of this test for C=CCOC(=O)NC(c1ccc(F)c(F)c1)C(C(C)=O)C(=O)OC (configuration not stated) ?
inactive

Record lookup: outcome of this test for `CC(CCN1CCCCc2nc(C)c(C)cc21)=NOC[C@@H](O)[C@H]1O[C@@H]2OC(C)(C)O[C@H]2[C@@H]1O` ?
inactive

Record lookup: outcome of this test for `COc1ccc(-c2nc(-c3ccccc3)oc2Nc2ccccc2C)cc1` ?
inactive

Record lookup: outcome of this test for `O=C1NC[C@H](c2ccccc2)N1` ?
inactive

Record lookup: outcome of this test for `CCOC(=O)C1(C(=O)OCC)CC2=C(C=CC3=C(C=C2)CC(C(=O)OCC)(C(=O)OCC)C3)C1` ?
inactive

Record lookup: outcome of this test for `COC(=O)C1=C(C(=O)OC)[C@@H]2Nc3ccccc3[C@@]23C[C@@H](C(=O)OC)N(C(=O)Nc2ccccc2F)C3=N1` ?
inactive

Record lookup: outcome of this test for `C[C@H]1Cc2c(COc3ccccc3)nc3c(c2CO1)CN(C(=O)NCc1ccco1)CC3` ?
inactive

Record lookup: outcome of this test for `CCN1C(=O)[C@@H]2[C@H]3[C@H](O)[C@H](O)CC(=NO[C@H](C)CN4CCCc5nc(C)c(C)cc54)[C@@H]3CC[C@H]2C1=O` ?
inactive

Record lookup: outcome of this test for `Cc1cc(F)ccc1O[C@H]1C=C[C@@H](c2ccc3c(c2)OCO3)O[C@H]1CO` ?
inactive

Record lookup: outcome of this test for COC(=O)CCCC1=CC2=CC(=O)C(C)(OC(=O)c3cccs3)C(=O)C2=CN1Cc1ccco1 (configuration not stated) ?
inactive

Record lookup: outcome of this test for CCOC(=O)C1=CN(CCc2cn(Cc3ccccc3)nn2)C(=O)NC1c1ccccc1 (configuration not stated) ?
inactive

Record lookup: outcome of this test for `COC(=O)C1=C(C(=O)OC)[C@@H]2Nc3ccccc3[C@@]23C[C@@H](C(=O)OC)N(C(=O)Nc2ccc(C(F)(F)F)cc2)C3=N1` ?
inactive

Record lookup: outcome of this test for CCN1C(=O)N(S(=O)(=O)c2ccc(C)cc2)C(c2ccccc2)C(C(=O)OC)=C1C (configuration not stated) ?
inactive

Record lookup: outcome of this test for `C[C@@H]1C=CCCO[C@]12C(=O)N(Cc1ccc(Br)cc1)c1ccccc12` ?
inactive

Record lookup: outcome of this test for `COc1cc(O)c(C(=O)C=Cc2ccc3c(c2)OCO3)c(OC)c1` ?
inactive

Record lookup: outcome of this test for COCCN1C(=O)N(C)C(c2ccccc2)C(C(C)=O)=C1C (configuration not stated) ?
inactive

Record lookup: outcome of this test for CCOC(=O)CN1C(=O)NC(c2cccs2)C(C(=O)OC)=C1C (configuration not stated) ?
inactive

Record lookup: outcome of this test for `O=C(NN=C1C[C@@H](O)[C@H](O)[C@H]2[C@@H]3C(=O)N(c4cccc(Oc5ccccc5)c4)C(=O)[C@@H]3CC[C@H]12)OCc1ccccc1` ?
inactive

Record lookup: outcome of this test for `C=C(C)C(=O)OC[C@H]1CN2[C@H](c3ccc(Br)cc3)[C@H](C)CC[C@H]2C(=O)O1` ?
active

Record lookup: outcome of this test for CC(CCC#N)[N+](=O)[O-] (configuration not stated) ?
inactive

Record lookup: outcome of this test for COc1cc(CCN2C(=O)NC(c3cccc(C(F)(F)F)c3)C(C(C)=O)=C2C)cc(OC)c1OC (configuration not stated) ?
inactive

Record lookup: outcome of this test for `COc1ccc(-c2nc3c(c4c2C[C@H](c2ccccc2)OC4)CN(C(=O)NCc2ccco2)CC3)c(C)c1` ?
inactive

Record lookup: outcome of this test for CC(C)=CCN1C(=O)[C@]2(O[C@H](C)CC3=CCCC32)c2c(Br)cccc21 (some centres not stated) ?
inactive

Record lookup: outcome of this test for `C=C(C)C(=O)C=CC=Cc1ccccc1` ?
inactive

Record lookup: outcome of this test for `O=C(NN=C1C[C@@H](O)[C@H](O)[C@H]2[C@@H]3C(=O)N(C4CCCCC4)C(=O)[C@@H]3CC[C@@H]12)OCc1ccccc1` ?
inactive
